experiment: growth suppression of PTEN-deleted HCT116, pilot screen, cell-based, HCT116 clonal line, CellTiter-Glo (AID 824); conditions: 60 h, at 10 µM, stronger effect = lower value;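 note: 0% = 20 µM Hyamine control and 100% = vehicle cell control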
Inconclusive results are not listed.
Assay readout: viability (%)
Give the value, in units of %, as a plain number.

Exercise: Would you mind telling me what viability value was observed for Cc1ccc(C(C(=O)NC2CCCC2)N2CCCCC2)cc1 (stereo unspecified) ?
Solution: 90.6

Exercise: Would you mind telling me what viability value was observed for Cn1nnnc1SCC(=O)Nc1ccc(N2CCOCC2)cc1 ?
Solution: 97.5

Exercise: Would you mind telling me what viability value was observed for Cc1cc(C)n(S(=O)(=O)c2ccc(Cl)c(Cl)c2Cl)n1 ?
Solution: 84.6

Exercise: Would you mind telling me what viability value was observed for Cc1cccc(Nc2ncnc3nc[nH]c23)c1 ?
Solution: 97.6

Exercise: Would you mind telling me what viability value was observed for Cc1ccc(Cn2c(Sc3nnc(C)s3)nc3c2c(=O)[nH]c(=O)n3C)cc1 ?
Solution: 78.6

Exercise: Would you mind telling me what viability value was observed for COc1ccc(N2Cc3cccc(C(=O)N4CCN(C(=O)c5ccco5)CC4)c3C2=O)cc1 ?
Solution: 91

====

Assignment: determine reported viability for the given compounds.
assay: growth suppression of PTEN-deleted HCT116, pilot screen, cell-based, HCT116 clonal line, CellTiter-Glo (AID 824); details: 60 h, at 10 µM, stronger effect = lower value;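 note: 0% = 20 µM Hyamine control and 100% = vehicle cell control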
Records with an inconclusive call do not appear.
Give the value, in units of %, as a plain number.

Exercise: Would you mind telling me what viability value was observed for Cc1ccc2nc(NC(=O)CCNS(=O)(=O)c3cccs3)sc2c1 ?
Solution: 71.7

Exercise: Would you mind telling me what viability value was observed for CSc1ccccc1NC(=O)c1onc(C)c1Cl ?
Solution: 93.2

Exercise: Would you mind telling me what viability value was observed for Cc1noc(/C=C/N(C)C)c1S(=O)(=O)N1CCN(c2ccccc2)CC1 ?
Solution: 90.8

Exercise: Would you mind telling me what viability value was observed for COc1ccc(CCNC(=O)CC2Oc3ccc(Cl)cc3NC2=O)cc1OC (configuration not stated) ?
Solution: 97.6

Exercise: Would you mind telling me what viability value was observed for COc1ccc(NC(=O)CSc2nnc(Cn3c(=O)sc4ccccc43)n2C)cc1OC ?
Solution: 92.2

Exercise: Would you mind telling me what viability value was observed for CN(C)c1nc2c(c(=O)[nH]c(=O)n2C)n1Cc1ccc(F)cc1 ?
Solution: 100

Exercise: Would you mind telling me what viability value was observed for COc1ccc(CCC(C(O)C(F)(F)F)S(=O)c2ccccc2)cc1 (configuration not stated) ?
Solution: 101

Exercise: Would you mind telling me what viability value was observed for CCN(CC)S(=O)(=O)c1cccc(-c2nnc(SCc3nnc(-c4cccs4)o3)n2N)c1 ?
Solution: 92.5

Exercise: Would you mind telling me what viability value was observed for COc1ccccc1N1CCN(C(=O)CCc2ccc(S(=O)(=O)NC(C)C)cc2)CC1 ?
Solution: 102

Exercise: Would you mind telling me what viability value was observed for CC(CCc1ccccc1)NC(=O)C1CCN(C(=O)c2sccc2-n2cccc2)CC1 (configuration not stated) ?
Solution: 89.3

Exercise: Would you mind telling me what viability value was observed for COc1ccc(N2C(=O)c3ccccc3NC23CCCCC3)cc1 ?
Solution: 91.5

Exercise: Would you mind telling me what viability value was observed for COc1ccc(NC(=O)c2c(NC(=O)CNCc3ccco3)sc3c2CCC3)c(OC)c1 ?
Solution: 79.2

Exercise: Would you mind telling me what viability value was observed for Cc1nc(-c2ccc3c(c2)OCO3)cs1 ?
Solution: 101

Exercise: Would you mind telling me what viability value was observed for CC(C)n1c(NCc2cc(Cl)ccc2O)nc2ccccc21 ?
Solution: 87.9

Exercise: Would you mind telling me what viability value was observed for Cn1c(=O)oc2cc(S(=O)(=O)N3CCCC(C(=O)N4CCn5c4nc4ccccc45)C3)ccc21 (configuration not stated) ?
Solution: 76.2

Exercise: Would you mind telling me what viability value was observed for CCn1cc(C(=O)N2CCN(Cc3ccc4c(c3)OCO4)CC2)c2cc(OC)c(OC)cc2c1=O ?
Solution: 85.9

Exercise: Would you mind telling me what viability value was observed for O=C1CC(c2ccco2)Sc2nc3ccccc3n21 (configuration not stated) ?
Solution: 80.3

Exercise: Would you mind telling me what viability value was observed for CCOC(=O)C1=C(C)N(C)C(C)=C(C(=O)OCC)C1c1ccccn1 ?
Solution: 91.6

Exercise: Would you mind telling me what viability value was observed for CC(C)(C)c1nc(CN2CCCCC2)cc(CN2CCCCC2)c1O ?
Solution: 76.2

Exercise: Would you mind telling me what viability value was observed for COc1ccc(S(=O)(=O)N2CCCC2C(=O)Nc2ccc(C(C)=O)cc2)cc1 (configuration not stated) ?
Solution: 95.8

Exercise: Would you mind telling me what viability value was observed for CCOC(=O)N1CCN(C(=O)C2CCN(Cc3nc(-c4ccccc4C)oc3C)CC2)CC1 ?
Solution: 88

Exercise: Would you mind telling me what viability value was observed for CCOc1ccc(N(CC(=O)NCc2ccc(F)cc2)S(=O)(=O)c2c(C)noc2C)cc1 ?
Solution: 92.8

# credit: PubChem BioAssay
